The following molecules are shown together with reported remaining at 3 h, 10 µM values.
test: Plasma stability, human plasma; conditions: human, human Li-heparin plasma, Conc. (% of T0), human plasma, 37° C., timepoint 3 h
Bridge positions count the residues as written; N and C are the ends. Square brackets hold non-standard residues; d marks the D form. Peptide text beside a SMILES is read from it.
Answer format: numeric, % implied, no suffix.

CC(=O)N1CCC[C@H]1C(=O)N[C@@H](CO)C(=O)N[C@@H](CCCNC(=N)N)C(=O)N[C@@H](CC(C)C)C(=O)N[C@H]1CCC(=O)NCCCC[C@@H](C(=O)N[C@@H](CCCNC(=N)N)C(=O)N[C@@H](CCCNC(=N)N)C(=O)N[C@@H](CC(C)C)C(=O)N[C@H](C(=O)N[C@@H](CCC(=O)O)C(N)=O)[C@@H](C)O)NC(=O)[C@H](CC(C)C)NC(=O)[C@H](CCC(=O)O)NC(=O)[C@H](CCC(=O)O)NC1=O [SD15806] (Ac-PSRLEEELKRRLTE-NH2; lactam 5-9) | 86.5

As a next step, examine the molecule that follows.
I have this molecule here, CC(=O)N1CCC[C@H]1C(=O)N[C@@H](CO)C(=O)N[C@@H](CCCNC(=N)N)C(=O)N[C@@H](CC(C)C)C(=O)N[C@@H](CCC(=O)O)C(=O)N[C@H]1CSSC[C@H](C(=O)N[C@@H](CCCNC(=N)N)C(=O)N[C@@H](CCCNC(=N)N)C(=O)N[C@@H](CC(C)C)C(=O)N[C@H](C(=O)N[C@@H](CCC(=O)O)C(N)=O)[C@@H](C)O)NC(=O)[C@H](CC(C)C)NC(=O)[C@H](CCC(=O)O)NC1=O [SD15807] (Ac-PSRLECEL[dC]RRLTE-NH2; disulfide 6-9) , and I need its recorded remaining at 3 h, 10 µM.
75

----------
test: in vitro; settings: Balb C, mouse, plasma
quantityName: remaining at 2 h, 10 µM (%)
Quick reminder: number only, in %, skip the unit.

Requested field: remaining at 2 h, 10 µM. Item: Ac-PSRLEEELRRRLTE-NH2 [SD14316]
72.7

----------
test: Plasma stability, mouse plasma; settings: Balb C, mouse, Li-heparin plasma
Bridge positions count the residues as written; N and C are the ends. Square brackets hold non-standard residues; d marks the D form. Peptide text beside a SMILES is read from it.
quantityName: remaining at 1 h, 10 µM (%)
Kindly answer with a numeric value in %, unit omitted.

Here are 2 molecules together with their reported answers.
CC(=O)N1CCC[C@H]1C(=O)N[C@@H](CO)C(=O)N[C@@H](CCCNC(=N)N)C(=O)N[C@@H](CC(C)C)C(=O)N[C@@H](CCC(=O)O)C(=O)N[C@H]1CSSC[C@H](C(=O)N[C@@H](CCCNC(=N)N)C(=O)N[C@@H](CCCNC(=N)N)C(=O)N[C@@H](CC(C)C)C(=O)N[C@H](C(=O)N[C@@H](CCC(=O)O)C(N)=O)[C@@H](C)O)NC(=O)[C@H](CC(C)C)NC(=O)[C@H](CCC(=O)O)NC1=O [SD15807] (Ac-PSRLECEL[dC]RRLTE-NH2; disulfide 6-9) | 78.7
CC(=O)N1CCC[C@H]1C(=O)N[C@@H](CO)C(=O)N[C@@H](CCCNC(=N)N)C(=O)N[C@@H](CC(C)C)C(=O)N[C@@H](CCC(=O)O)C(=O)N[C@H]1CCC(=O)NCCCC[C@H](C(=O)N[C@@H](CCCNC(=N)N)C(=O)N[C@@H](CC(C)C)C(=O)N[C@H](C(=O)N[C@@H](CCC(=O)O)C(N)=O)[C@@H](C)O)NC(=O)[C@H](CCCNC(=N)N)NC(=O)[C@H](CC(C)C)NC(=O)[C@H](CCC(=O)O)NC1=O [SD15808] (Ac-PSRLEEELR[dK]RLTE-NH2; lactam 6-10) | 86.9

Sample CC(=O)N1CCC[C@H]1C(=O)N[C@@H](CO)C(=O)N[C@@H](CCCNC(=N)N)C(=O)N[C@@H](CC(C)C)C(=O)N[C@@H](CCC(=O)O)C(=O)N[C@H]1CCCCNC(=O)CC[C@@H](C(=O)N[C@@H](CCCNC(=N)N)C(=O)N[C@@H](CC(C)C)C(=O)N[C@H](C(=O)N[C@@H](CCC(=O)O)C(N)=O)[C@@H](C)O)NC(=O)[C@H](CCCNC(=N)N)NC(=O)[C@H](CC(C)C)NC(=O)[C@H](CCC(=O)O)NC1=O [SD15805] (Ac-PSRLEKELRERLTE-NH2; lactam 6-10) — what was its remaining at 1 h, 10 µM?
82.1
